# targetEntity: recombinant human mGlu4 expressed in HEK293 cells (Homo sapiens (Human), UniProt Q14833)
# Sequence (Q14833 33-912): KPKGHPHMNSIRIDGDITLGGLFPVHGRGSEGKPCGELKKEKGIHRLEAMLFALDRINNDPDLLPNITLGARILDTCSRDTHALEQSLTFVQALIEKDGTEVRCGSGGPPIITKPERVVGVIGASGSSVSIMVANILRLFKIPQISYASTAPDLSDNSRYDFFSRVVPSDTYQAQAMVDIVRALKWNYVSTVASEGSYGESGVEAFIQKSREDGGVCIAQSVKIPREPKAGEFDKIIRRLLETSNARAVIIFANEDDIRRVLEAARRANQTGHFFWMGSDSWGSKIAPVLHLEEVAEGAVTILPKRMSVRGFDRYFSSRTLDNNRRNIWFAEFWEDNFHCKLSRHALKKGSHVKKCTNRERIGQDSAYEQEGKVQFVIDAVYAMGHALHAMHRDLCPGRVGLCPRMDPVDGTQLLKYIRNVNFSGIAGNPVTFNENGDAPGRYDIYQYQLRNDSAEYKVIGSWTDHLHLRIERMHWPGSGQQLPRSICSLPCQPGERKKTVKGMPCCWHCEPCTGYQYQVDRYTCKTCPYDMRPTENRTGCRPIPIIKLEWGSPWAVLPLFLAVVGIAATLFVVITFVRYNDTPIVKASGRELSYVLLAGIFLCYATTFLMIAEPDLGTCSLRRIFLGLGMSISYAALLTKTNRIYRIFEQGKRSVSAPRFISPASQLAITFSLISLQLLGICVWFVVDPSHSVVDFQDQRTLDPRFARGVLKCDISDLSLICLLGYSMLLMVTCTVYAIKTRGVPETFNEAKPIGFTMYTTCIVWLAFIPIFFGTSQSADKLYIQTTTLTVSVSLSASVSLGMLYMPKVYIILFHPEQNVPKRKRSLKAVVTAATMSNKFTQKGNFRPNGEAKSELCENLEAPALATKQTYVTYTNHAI
# assayInfo: Ca2+ mobilization in vitro assay, mGlu4 PAM (with EC20 of L-AP4)
# Assay type: cell-based
# recordedConditions: HEK293; maximal response in % of the maximal stimulatory effect obtained with saturating concentrations of L-AP4; read-out: Eff. (%)
observable: Emax (%)

Some solved cases for reference:
CC(C)(C)N1CC(=O)N(c2c(F)cc(C#Cc3ccccc3)cc2F)C1=O = 143
CC(C)N1C(=O)N(c2c(F)cc(C#Cc3ccccc3)cc2F)C(=O)C12COC2 = 100
CC(C)N1C(=O)N(c2c(F)cc(C#Cc3ccccc3)cc2F)C(=O)C1C (racemic) = 107
CC(C)N1C(=O)N(c2c(F)cc(C#Cc3ccccc3)cc2F)C(=O)C1(C)C = 98
O=C1C2CCc3ccccc3N2C(=O)N1c1c(F)cc(C#Cc2ccccc2)cc1F (racemic) = 110
CC1CCCC2C(=O)N(c3ccc(C#Cc4ccccc4)cc3Cl)C(=O)N12 (racemic) = 232

P = O=C1C2Cc3ccccc3CN2C(=O)N1c1c(F)cc(C#Cc2ccccc2)cc1F (racemic)
Q = CC(C)N1CC(=O)N(c2c(F)cc(C#Cc3ccccc3)cc2F)C1=O
Hi, I'm comparing two records. Which one has the lower Emax, P or Q ? Record your answer as the label of the chosen record.
P

----------
# targetEntity: recombinant human mGlu4 expressed in HEK293 cells (Homo sapiens (Human), UniProt Q14833)
# assayInfo: Ca2+ mobilization in vitro assay, mGlu4 PAM (with EC20 of L-AP4)
# Format: cell-based
# recordedConditions: HEK293; maximal response in % of the maximal stimulatory effect obtained with saturating concentrations of L-AP4; read-out: Eff. (%)
observable: Emax (%)

Some solved cases for reference:
O=C1CN(C2CC2)C(=O)N1c1c(F)cc(C#Cc2ccccc2)cc1F = 113
CC1CCCC2C(=O)N(c3c(F)cc(C#Cc4cccnc4)cc3Cl)C(=O)N12 (racemic) = 140
CC1(C)C(=O)N(c2c(F)cc(C#Cc3ccccc3)cc2F)C(=O)N1c1ccccc1 = 222

A = CC1COCC2C(=O)N(c3c(F)cc(C#Cc4ccccc4)cc3F)C(=O)N12 (racemic)
B = O=C1C2Cc3ccccc3N2C(=O)N1c1c(F)cc(C#Cc2ccccc2)cc1F (racemic)
Determine, for A and B , which has the greater value of Emax. Record your answer as the label of the chosen record.
A
(A: 188%, B: 103%)

----------
# targetEntity: recombinant human mGlu4 expressed in HEK293 cells (Homo sapiens (Human), UniProt Q14833)
# assayInfo: Ca2+ mobilization in vitro assay, mGlu4 PAM (with EC20 of L-AP4)
# Type: cell-based
# recordedConditions: human mGlu4 in HEK293 cells, Ca2+ mobilization, L-AP4 at EC20; read-out: EC50 (nM) mGlu4PAM
observable: EC50 (nM)

O=C1C2Cc3ccccc3CN2C(=O)N1c1c(F)cc(C#Cc2ccccc2)cc1F (racemic) [Example 9] = 56
CC(C)N1C(=O)N(c2c(F)cc(C#Cc3ccccc3)cc2F)C(=O)C12COC2 [Example 13] = 230
CC(C)N1C(=O)N(c2c(F)cc(C#Cc3ccccc3)cc2F)C(=O)C1C (racemic) [Example 2] = 104
CC1CCCC2C(=O)N(c3ccc(C#Cc4ccccc4)cc3Cl)C(=O)N12 (racemic) [Example 10] = 256

I = O=C1C2Cc3ccccc3N2C(=O)N1c1c(F)cc(C#Cc2ccccc2)cc1F (racemic) [Example 5]
II = O=C1C2CCc3ccccc3N2C(=O)N1c1c(F)cc(C#Cc2ccccc2)cc1F (racemic) [Example 6]
Determine, for I and II , which has the greater value of EC50. Record your answer as the label of the chosen record.
I
(I: 188 nM, II: 74 nM)

I = O=C1CN(C2CC2)C(=O)N1c1c(F)cc(C#Cc2ccccc2)cc1F [Example 12]
II = CC1(C)C(=O)N(c2c(F)cc(C#Cc3ccccc3)cc2F)C(=O)N1c1ccccc1 [Example 7]
Determine, for I and II , which has the greater value of EC50. Record your answer as the label of the chosen record.
I
